The entries below come with measured Dmax values attached.
experimental-system: EGFR L858R/T790M/C797S (BaF3-LTC cells) (Homo sapiens, UniProt P00533, C797S/L858R/T790M)
Construct: expressed in transfected cells; host or cells: BaF3
Sequence (P00533 25-1210 T790M/C797S/L858R): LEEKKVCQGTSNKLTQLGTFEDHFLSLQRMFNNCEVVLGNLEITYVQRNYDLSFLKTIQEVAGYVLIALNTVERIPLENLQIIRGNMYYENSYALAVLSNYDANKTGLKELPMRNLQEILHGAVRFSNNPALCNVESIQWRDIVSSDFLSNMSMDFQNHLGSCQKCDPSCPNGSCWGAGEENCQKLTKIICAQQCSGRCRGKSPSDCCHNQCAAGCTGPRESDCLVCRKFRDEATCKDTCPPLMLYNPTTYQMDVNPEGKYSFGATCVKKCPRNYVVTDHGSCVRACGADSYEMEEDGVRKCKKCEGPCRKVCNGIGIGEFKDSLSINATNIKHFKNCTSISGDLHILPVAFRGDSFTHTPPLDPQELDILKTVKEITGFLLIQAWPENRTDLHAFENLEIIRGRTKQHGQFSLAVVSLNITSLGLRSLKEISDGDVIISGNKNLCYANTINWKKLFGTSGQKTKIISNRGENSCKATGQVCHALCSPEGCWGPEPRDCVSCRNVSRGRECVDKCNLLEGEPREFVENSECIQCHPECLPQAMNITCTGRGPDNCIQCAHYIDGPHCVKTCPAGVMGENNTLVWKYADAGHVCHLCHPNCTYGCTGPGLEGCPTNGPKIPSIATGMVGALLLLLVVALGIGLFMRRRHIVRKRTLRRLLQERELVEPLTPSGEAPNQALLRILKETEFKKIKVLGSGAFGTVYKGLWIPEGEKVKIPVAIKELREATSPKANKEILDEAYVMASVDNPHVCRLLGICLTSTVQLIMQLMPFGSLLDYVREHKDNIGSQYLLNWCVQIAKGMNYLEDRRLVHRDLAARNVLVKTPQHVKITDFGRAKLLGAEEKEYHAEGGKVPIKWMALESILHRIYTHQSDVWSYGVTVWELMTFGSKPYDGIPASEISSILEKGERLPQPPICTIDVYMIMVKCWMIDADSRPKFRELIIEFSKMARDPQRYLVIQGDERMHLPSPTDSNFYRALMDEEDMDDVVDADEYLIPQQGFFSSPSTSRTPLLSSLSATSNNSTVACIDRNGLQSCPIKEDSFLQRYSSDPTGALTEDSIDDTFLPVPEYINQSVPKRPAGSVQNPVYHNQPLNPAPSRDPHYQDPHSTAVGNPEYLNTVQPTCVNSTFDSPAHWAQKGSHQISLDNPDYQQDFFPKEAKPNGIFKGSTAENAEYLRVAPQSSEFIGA
assay-info: EGFR degradation HTRF assay, BaF3-LTC cells
Assay type: cell-based
study-conditions: BaF3-LTC, 16h treatment, maximum percentage of degradation; read-out: LTC Dmax (%)
Report the figure along with its unit, number first.

Use the examples below as a reference point.
CCc1cc(Nc2ncc(Br)c(Nc3ccc4nccnc4c3P(C)(C)=O)n2)c(OC)cc1N1CCC(N2CCN(C(=O)CC3CCN(c4cc(F)c(C5CCC(=O)NC5=O)c(F)c4)CC3)CC2)CC1 (centres unmarked) ... 96%
CCc1cc(Nc2ncc(Br)c(Nc3ccc4nc(C)ccc4c3P(C)(C)=O)n2)c(OC)cc1N1CCC(N2CCCN(CCc3cc(F)c(C4CCC(=O)NC4=O)c(F)c3)CC2)CC1 (centres unmarked) ... 90.4%
CCc1cc(Nc2ncc(Br)c(Nc3ccc4nccnc4c3P(C)(C)=O)n2)c(OC)cc1N1CCC(N2CCN(C[C@H]3C[C@H](N(C)c4ccc(C5CCC(=O)NC5=O)cc4)C3)CC2)CC1 (some centres unmarked) ... 81.4%
CCc1cc(Nc2ncc(Br)c(Nc3ccc4nc(C)ccc4c3P(C)(C)=O)n2)c(OC)cc1N1CCC(N2CCN(CCCOc3cc(F)c(C4CCC(=O)NC4=O)c(F)c3)CC2)CC1 (centres unmarked) ... 90.4%

Let us move to another entry and its Dmax.
Kindly note the recorded Dmax for CCc1cc(Nc2ncc(Br)c(Nc3ccc4nccnc4c3P(C)(C)=O)n2)c(OC)cc1N1CCC(N2CCN(CC3CN(c4ccc5c(c4)C(=O)N(C4CCC(=O)NC4=O)C5)C3)CC2)CC1 (centres unmarked) , which is 87%

----------
experimental-system: EGFR L858R/C797S (BaF3 LC cells) (Homo sapiens, UniProt P00533, C797S/L858R)
Construct: expressed in transfected cells; host or cells: BaF3
Sequence (P00533 25-1210 C797S/L858R): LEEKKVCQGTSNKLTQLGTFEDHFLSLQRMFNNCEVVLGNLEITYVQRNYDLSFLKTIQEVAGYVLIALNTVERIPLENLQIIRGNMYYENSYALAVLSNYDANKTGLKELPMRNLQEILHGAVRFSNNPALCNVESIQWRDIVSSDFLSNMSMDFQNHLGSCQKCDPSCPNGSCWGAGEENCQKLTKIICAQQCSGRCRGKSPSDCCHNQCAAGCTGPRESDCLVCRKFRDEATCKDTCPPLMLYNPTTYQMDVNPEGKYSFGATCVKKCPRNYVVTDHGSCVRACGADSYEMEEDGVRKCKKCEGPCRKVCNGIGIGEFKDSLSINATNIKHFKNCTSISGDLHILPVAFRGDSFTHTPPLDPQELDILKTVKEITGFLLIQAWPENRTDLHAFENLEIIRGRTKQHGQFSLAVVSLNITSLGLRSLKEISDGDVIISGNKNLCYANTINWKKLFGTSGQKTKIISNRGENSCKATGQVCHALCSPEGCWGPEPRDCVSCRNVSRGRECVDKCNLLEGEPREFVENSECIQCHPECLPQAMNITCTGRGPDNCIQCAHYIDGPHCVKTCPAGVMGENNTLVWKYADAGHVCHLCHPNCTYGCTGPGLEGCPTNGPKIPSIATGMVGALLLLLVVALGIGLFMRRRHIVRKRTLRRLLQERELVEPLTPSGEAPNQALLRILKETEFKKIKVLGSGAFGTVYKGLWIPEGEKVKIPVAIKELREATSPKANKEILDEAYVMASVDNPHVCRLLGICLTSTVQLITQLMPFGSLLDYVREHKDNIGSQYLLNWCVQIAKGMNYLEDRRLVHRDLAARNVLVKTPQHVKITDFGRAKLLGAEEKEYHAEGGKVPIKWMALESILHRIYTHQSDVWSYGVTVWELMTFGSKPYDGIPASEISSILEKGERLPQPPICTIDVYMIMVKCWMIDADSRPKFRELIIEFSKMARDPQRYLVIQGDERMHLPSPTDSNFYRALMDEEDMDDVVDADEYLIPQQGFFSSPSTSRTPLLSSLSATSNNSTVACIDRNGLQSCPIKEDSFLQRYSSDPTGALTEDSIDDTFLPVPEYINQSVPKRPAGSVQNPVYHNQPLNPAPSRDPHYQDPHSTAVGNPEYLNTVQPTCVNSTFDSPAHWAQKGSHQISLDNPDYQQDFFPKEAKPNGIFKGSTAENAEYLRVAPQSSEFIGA
assay-info: EGFR degradation HTRF assay, BaF3 LC cells
Format: cell-based
study-conditions: BaF3 LC, 16h treatment; read-out: BaF3 LC DC50
The entries below come with measured DC50 values attached.
Write the answer as a number in nM, unit excluded.

CCOc1cc(N2CCC(N3CCN(CCc4cccc5c4n(CC)c(=O)n5C4CCC(=O)NC4=O)CC3)CC2)c(CC)cc1Nc1ncc(Br)c(Nc2cc(F)c3nc(CC)ccc3c2P(C)(C)=O)n1 (stereo not shown) ... 3.97

Summary line: CCc1cc(Nc2ncc(Br)c(Nc3ccc4nc(C)ccc4c3P(C)(C)=O)n2)c(OC)cc1N1CCC(N2CCN(C(=O)C3CN(c4cccc5c4C(C)(C)C(=O)N5C4CCC(=O)NC4=O)C3)CC2)CC1 (stereo not shown) , EGFR L858R/C797S (BaF3 LC cells) (Homo sapiens, UniProt P00533, C797S/L858R), reported DC50 = 8.97

Summary line: CCOc1cc(N2CCC(N3CCN(CCc4cc5oc(=O)n(C6CCC(=O)NC6=O)c5cc4F)CC3)CC2)c(CC)cc1Nc1ncc(Br)c(Nc2cc(F)c3nc(CC)ccc3c2P(C)(C)=O)n1 (stereo not shown) , EGFR L858R/C797S (BaF3 LC cells) (Homo sapiens, UniProt P00533, C797S/L858R), reported DC50 = 0.718

Summary line: CCc1ccc2c(P(C)(C)=O)c(Nc3nc(Nc4cc(CC)c(N5CCC(N6CCN(C(=O)[C@H]7CN(c8cc(F)c([C@H]9CCC(=O)NC9=O)c(F)c8)CC7(C)C)CC6)CC5)cc4OC)ncc3Br)ccc2n1 , EGFR L858R/C797S (BaF3 LC cells) (Homo sapiens, UniProt P00533, C797S/L858R), reported DC50 = 36.1

Summary line: CCc1ccc2c(P(C)(C)=O)c(Nc3nc(Nc4cc(CC)c(N5CCC(N6CCN(C(=O)[C@@H]7CCN(c8cc(F)c([C@H]9CCC(=O)NC9=O)c(F)c8)C7)CC6)CC5)cc4OC)ncc3Br)ccc2n1 , EGFR L858R/C797S (BaF3 LC cells) (Homo sapiens, UniProt P00533, C797S/L858R), reported DC50 = 19.7

Summary line: CCOc1cc(N2CCC(N3CCN(CCc4cc5oc(=O)n(C6CCC(=O)NC6=O)c5cc4C)CC3)CC2)c(CC)cc1Nc1ncc(Br)c(Nc2cc(F)c3nc(CC)ccc3c2P(C)(C)=O)n1 (stereo not shown) , EGFR L858R/C797S (BaF3 LC cells) (Homo sapiens, UniProt P00533, C797S/L858R), reported DC50 = 1.23

Summary line: CCc1ccc2c(P(C)(C)=O)c(Nc3nc(Nc4cc(CC)c(N5CCC(N6CCN(CCc7cc(F)c([C@H]8CCC(=O)NC8=O)c(F)c7)CC6)CC5)cc4OC)ncc3Br)ccc2n1 , EGFR L858R/C797S (BaF3 LC cells) (Homo sapiens, UniProt P00533, C797S/L858R), reported DC50 = 11.9

Summary line: CCc1ccc2c(P(C)(C)=O)c(Nc3nc(Nc4cc(CC)c(N5CCC(N6CCN(CCc7cccc8c7oc(=O)n8C7CCC(=O)NC7=O)CC6)CC5)cc4OC)ncc3Br)ccc2n1 (stereo not shown) , EGFR L858R/C797S (BaF3 LC cells) (Homo sapiens, UniProt P00533, C797S/L858R), reported DC50 = 15.5

Summary line: CCc1cc(Nc2ncc(Br)c(Nc3ccc4nc(C)c(F)cc4c3P(C)(C)=O)n2)c(OC)cc1N1CCC(N2CCN(C(=O)[C@H]3CN(c4cc(F)c([C@H]5CCC(=O)NC5=O)c(F)c4)CC3(C)C)CC2)CC1 , EGFR L858R/C797S (BaF3 LC cells) (Homo sapiens, UniProt P00533, C797S/L858R), reported DC50 = 15.8

Summary line: CCOc1cc(N2CCC(N3CCN(CCc4cccc5c4C4(CC4)C(=O)N5C4CCC(=O)NC4=O)CC3)CC2)c(CC)cc1Nc1ncc(Br)c(Nc2ccc3nc(CC)ccc3c2P(C)(C)=O)n1 (stereo not shown) , EGFR L858R/C797S (BaF3 LC cells) (Homo sapiens, UniProt P00533, C797S/L858R), reported DC50 = 13.2
